# assayTarget: T1, matriptase (#3946-SE-010, R&D Systems) (UniProt Q9Y5Y6 615-855)
# T1 sequence (looked up): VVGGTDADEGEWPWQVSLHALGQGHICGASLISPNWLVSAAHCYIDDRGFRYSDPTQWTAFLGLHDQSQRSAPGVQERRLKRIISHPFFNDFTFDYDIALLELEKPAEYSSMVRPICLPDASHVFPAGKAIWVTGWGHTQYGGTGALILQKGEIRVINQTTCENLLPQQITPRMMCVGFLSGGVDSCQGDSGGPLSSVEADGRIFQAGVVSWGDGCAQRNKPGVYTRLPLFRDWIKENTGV
# protocolText: cell-based or functional assay
Positions of bridges follow the written chain, without caps; N, C: chain ends. Non-standard residues stand in square brackets, D forms with d. kbt = C-terminal Arg ketobenzothiazole; kt = C-terminal Arg ketothiazole
quantityName: Matriptase IC50

* Ac-[dW]-Phe-Arg-kbt [Ac-dWFR-kbt, PK-1-89A1] | 29 nM
* Ac-DQKR-kbt (lactam 1-3; also: N-terminal acetyl described as 6-acetamido) [Cyclo(DQK)R-kbt, VD3152] | 7.7 nM
* Ac-DLKR-kbt (lactam 1-3; not fully specified; printed as Cyclo(DLK)R-kbt; also: N-terminal acetyl described as 6-acetamido) [Cyclo(DLK)R-kbt, VD2173] | 1.4 nM
* Ac-SKLR-{kbt-Val-NH2} [Ac-SKLR kbt V-amide, ZFH7116] | 11 nM
* Ac-Leu-Leu-Arg-kt [Ac-LLR-kt, ZFH6201] | 56 nM
